assayed_target: 3CL Protease (Severe acute respiratory syndrome coronavirus 2, UniProt P0DTD1)
measurement_notes: 3CL Protease enzymatic activity assay (BPS Bioscience Assay Kit #78043-1, fluorescence)
Assay type: biochemical, SARS-CoV-2
test_settings: Table A; 30 min preincubation, 40 μM substrate, 4 hours at room temperature; read-out: IC50, nM (3CL Protease enzymatic activity)
Exercise: for every item that follows, state its recorded IC50.

Take a look at these entries with their results.
Cc1ccc2[nH]c(=O)c(C[C@@H](C#N)NC(=O)[C@@H]3[C@@H]4[C@H](CN3C(=O)Cc3cc(C(F)(F)F)no3)C4(C)C)cc2c1
≥ 1000 nM
CC(C)(C)[C@H](NS(C)(=O)=O)C(=O)N1C[C@H]2[C@@H]([C@H]1C(=O)N[C@@H](C#N)Cc1cc3cnccc3[nH]c1=O)C2(C)C
≥ 1000 nM
Cc1ccc2[nH]c(=O)c(C[C@@H](C#N)NC(=O)[C@@H]3C4[C@H](CN3C(=O)[C@@H](Nc3ncc(C)s3)C(C)(C)C)C4(C)C)cc2c1 (stereo in doubt)
50 to 100 nM
Cc1cc2cc(C[C@@H](C#N)NC(=O)[C@@H]3[C@@H]4[C@H](CN3C(=O)[C@@H](NC(=O)C(F)(F)F)C(C)(C)C)C4(C)C)c(=O)[nH]c2cc1F
50 to 100 nM
Cc1ccc2[nH]c(=O)c(CC(C#N)NC(=O)[C@H](Cc3cc(F)c(F)cc3F)NC(=O)[C@@H](NS(=O)(=O)CC(F)(F)F)C(C)(C)C)cc2c1 (some centres unmarked)
500 to 1000 nM
Cc1ccc2[nH]c(=O)c(C[C@@H](C#N)NC(=O)[C@@H]3[C@H]4[C@H](CN3C(=O)[C@@H](NC(=O)C(F)(F)F)C(C)(C)C)C4(C)C)cc2c1 [Compound 113]
< 50 nM
Cn1cccc(CC(C#N)NC(=O)[C@@H]2C3[C@H](CN2C(=O)[C@@H](NC(=O)C(F)(F)F)C(C)(C)C)C3(C)C)c1=O (stereo in doubt)
≥ 1000 nM
CC(C)(C)[C@H](NC(=O)C(F)(F)F)C(=O)N1C[C@H]2C([C@H]1C(=O)NC(C#N)Cc1cc3c([nH]c1=O)CCC(F)(F)C3)C2(C)C (stereo in doubt)
250 to 500 nM

Hi! Can you tell me IC50 for each of these compounds?
1. Cc1ccc2[nH]c(=O)c(C[C@@H](C#N)NC(=O)[C@@H]3C4[C@H](CN3C(=O)[C@@H](Nc3nccc(C)n3)C(C)(C)C)C4(C)C)cc2c1 (stereo in doubt)
2. COc1ccc2[nH]c(=O)c(CC(C#N)NC(=O)[C@@H]3C4[C@H](CN3C(=O)[C@@H](NC(=O)C(F)(F)F)C(C)(C)C)C4(C)C)cc2c1 (stereo in doubt)
3. COc1cccc2oc(C(=O)N3C[C@H]4[C@@H]([C@H]3C(=O)N[C@H](C#N)Cc3cc5cc(C)ccc5[nH]c3=O)C4(C)C)cc12

Given back:
1. ≥ 1000 nM
2. 250 to 500 nM
3. ≥ 1000 nM

* * *

assayed_target: 3CL Protease (Severe acute respiratory syndrome coronavirus 2)
measurement_notes: 3CL Protease enzymatic activity assay (BPS Bioscience Assay Kit #78043-1, fluorescence)
Format: biochemical, SARS-CoV-2
test_settings: Table A; 30 min preincubation, 40 μM substrate, 4 hours at room temperature; read-out: IC50, nM (3CL Protease enzymatic activity)
Please respond with reported IC50 for every item in the list.

Solved cases below.
CC(C)(C)[C@H](NC(=O)C(F)(F)F)C(=O)N1C[C@H]2[C@@H]([C@H]1C(=O)NC(C#N)Cc1cc3c([nH]c1=O)CCCC3)C2(C)C (mixture of isomers)
250 to 500 nM
CC(C)(C)[C@H](NC(=O)C(F)(F)F)C(=O)N1C[C@H]2C([C@H]1C(=O)NC(C#N)Cc1ccc[nH]c1=O)C2(C)C (stereo in doubt)
100 to 250 nM
CC(C)(C)[C@H](NC(=O)C(F)(F)F)C(=O)N1C[C@H]2C([C@H]1C(=O)NC(C#N)Cc1cc3ccc(F)cc3[nH]c1=O)C2(C)C (stereo in doubt)
100 to 250 nM
Cc1ccc2[nH]c(=O)c(C[C@@H](C#N)NC(=O)[C@@H]3[C@@H]4[C@H](CN3C(=O)Cc3cc(C)no3)C4(C)C)cc2c1
≥ 1000 nM

# next molecule below
Asked: Recorded IC50 for CC1(C)CCc2[nH]c(=O)c(CC(C#N)NC(=O)[C@@H]3C4[C@H](CN3C(=O)[C@@H](NS(C)(=O)=O)C(C)(C)C)C4(C)C)cc2C1 (stereo in doubt) , please?
Given back: 500 to 1000 nM

* * *

assayed_target: 3CL Protease (Severe acute respiratory syndrome coronavirus 2)
measurement_notes: 3CL Protease enzymatic activity assay (BPS Bioscience Assay Kit #78043-1, fluorescence)
Format: biochemical, SARS-CoV-2
test_settings: Table A; 30 min preincubation, 40 μM substrate, 4 hours at room temperature; read-out: IC50, nM (3CL Protease enzymatic activity)
quantity_kind: IC50

Cc1ccc2[nH]c(=O)c(C[C@@H](C#N)NC(=O)[C@H](Cc3ccccc3)N(C)C(=O)[C@@H](NC(=O)C(F)(F)F)C(C)(C)C)cc2c1
≥ 1000 nM

Give measured IC50 for every item shown.
1. COc1cc2cc(C[C@@H](C#N)NC(=O)[C@@H]3[C@@H]4[C@H](CN3C(=O)[C@@H](NC(=O)C(F)(F)F)C(C)(C)C)C4(C)C)c(=O)[nH]c2cc1C
2. Cc1ccc2[nH]c(=O)c(C[C@H](C#N)NC(=O)[C@@H]3C4[C@H](CN3C(=O)[C@@H](NS(C)(=O)=O)C(C)(C)C)C4(C)C)cc2c1 (stereo in doubt)
3. Cc1ccc2[nH]c(=O)c(C[C@@H](C#N)NC(=O)[C@@H]3[C@@H]4[C@H](CN3C(=O)[C@@H](NS(=O)(=O)CC(F)(F)F)C(C)(C)C)C4(C)C)cc2c1
4. Cc1ccc2c(c1)CC(C[C@@H](C#N)NC(=O)[C@@H]1[C@@H]3[C@H](CN1C(=O)[C@@H](NC(=O)C(F)(F)F)C(C)(C)C)C3(C)C)C(=O)N2 (some centres unmarked)

Given back:
50 to 100 nM
≥ 1000 nM
< 50 nM
< 50 nM

* * *

assayed_target: UniProt P0DTD1
measurement_notes: 3CL Protease enzymatic activity assay (BPS Bioscience Assay Kit #78043-1, fluorescence)
Assay type: biochemical, SARS-CoV-2
test_settings: Table A; 30 min preincubation, 40 μM substrate, 4 hours at room temperature; read-out: IC50, nM (3CL Protease enzymatic activity)
Assignment: determine reported IC50 for the given compounds.

COC(=O)N[C@@H](C(=O)N1CC2C(C1C(=O)N[C@@H](C#N)Cc1cc3cc(C)ccc3[nH]c1=O)C2(C)C)C(C)(C)C (stereo in doubt) [Compound 200]
< 50 nM

Please go through the list and note IC50 for each compound.
1. Cc1ccc2[nH]c(=O)c(CC(C#N)NC(=O)[C@@H]3[C@H]4[C@H](CN3C(=O)[C@@H](Nc3ccnc(C)n3)C(C)(C)C)C4(C)C)cc2c1 (stereo partly drawn) [Compound 153]
2. Cc1ccc2[nH]c(=O)c(C[C@@H](C#N)NC(=O)[C@@H]3C4[C@H](CN3C(=O)[C@@H](Nc3ccnc(C(F)(F)F)n3)C(C)(C)C)C4(C)C)cc2c1 (stereo in doubt) [Compound 161]

Given back:
["≥ 1000 nM", "≥ 1000 nM"]

* * *

assayed_target: UniProt P0DTD1
measurement_notes: 3CL Protease enzymatic activity assay (BPS Bioscience Assay Kit #78043-1, fluorescence)
Type: biochemical, SARS-CoV-2
test_settings: Table A; 30 min preincubation, 40 μM substrate, 4 hours at room temperature; read-out: IC50, nM (3CL Protease enzymatic activity)
quantity_kind: IC50

Here is how some compounds turned out for IC50.
Cc1ccc2[nH]c(=O)c(CC(C#N)NC(=O)[C@@H]3C4[C@H](CN3C(=O)[C@@H](NC(=O)OC(C)(C)C)C(C)(C)C)C4(C)C)cc2c1 (stereo in doubt)
250 to 500 nM
Cc1ccc2[nH]c(=O)c(C[C@@H](C#N)N(C)C(=O)[C@@H]3[C@@H]4[C@H](CN3C(=O)[C@@H](NC(=O)C(F)(F)F)C(C)(C)C)C4(C)C)cc2c1
≥ 1000 nM
CC1(C)CCc2[nH]c(=O)c(CC(C#N)NC(=O)[C@@H]3C4[C@H](CN3C(=O)[C@@H](NC(=O)C(F)(F)F)C(C)(C)C)C4(C)C)cc2C1 (stereo in doubt)
500 to 1000 nM

I would be grateful if you could provide IC50 for each of the following entries.
1. Cc1ccc2[nH]c(=O)c(CC(C#N)N(C)C(=O)[C@@H]3[C@H]4[C@H](CN3C(=O)[C@@H](NC(=O)C(F)(F)F)C(C)(C)C)C4(C)C)cc2c1 (some centres unmarked)
2. Cc1ccc2[nH]c(=O)c(C[C@@H](C#N)NC(=O)[C@@H]3[C@@H]4[C@H](CN3C(=O)C(C)c3cc(C(F)(F)F)n[nH]3)C4(C)C)cc2c1 (some centres unmarked)

Given back:
≥ 1000 nM
≥ 1000 nM
